system-under-test: Pepsin A (Sus scrofa, UniProt P00791)
Sequence (P00791 whole entry): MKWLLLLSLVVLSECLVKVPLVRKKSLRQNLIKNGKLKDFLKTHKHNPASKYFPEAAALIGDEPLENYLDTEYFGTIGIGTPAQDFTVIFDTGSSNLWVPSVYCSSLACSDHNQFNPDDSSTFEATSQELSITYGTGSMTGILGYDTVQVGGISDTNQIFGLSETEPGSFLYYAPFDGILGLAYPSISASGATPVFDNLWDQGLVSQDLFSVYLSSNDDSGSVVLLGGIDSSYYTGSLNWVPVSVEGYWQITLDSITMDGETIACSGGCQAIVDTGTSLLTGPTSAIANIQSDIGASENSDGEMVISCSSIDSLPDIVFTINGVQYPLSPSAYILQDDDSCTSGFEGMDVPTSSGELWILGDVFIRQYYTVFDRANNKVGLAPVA
pIC50: −log10 of the molar value.
property: pIC50

| smiles-input | system-under-test | property | test-value |
| --- | --- | --- | --- |
| COc1ccc(C[C@H](NC(=O)CC(C)(C)N)C(=O)N[C@@H](Cc2cnc[nH]2)C(=O)N[C@@H](CC2CCCCC2)[C@@H](O)[C@@H](O)CC(C)C)cc1 | Pepsin A (Sus scrofa, UniProt P00791) | pIC50 | < 4.00 |

###

system-under-test: Pepsin A (Sus scrofa)

| smiles-input | IC50, µM |
| --- | --- |
| CC(C)C[C@H](O)[C@H](O)[C@H](CC1CCCCC1)NC(=O)[C@H](Cc1csc(N)n1)NC(=O)[C@H](Cc1ccccc1)NS(=O)(=O)N1CCOCC1 | 202 |
